Target: Notch signal transduction pathway
Assay: In vitro Notch signal transduction pathway activity assay (DR215/F2 luciferase reporter)
Type: cell-based, human
Details: DR215/F2 cell reporter assay
Counter-ions that a name gives are not always drawn.
value kind: IC50 for blockade of the Notch pathway, range in words

CC(=O)N[C@@H](CCC(=O)NCCNC(=O)OCCN1C(=O)[C@@H](NC(=O)[C@@](C)(O)C(=O)NCC(F)(F)C(F)(F)F)[C@@H](C)Oc2ccc(F)cc21)C(=O)O [Compound 13a] :: μM range
C[C@H]1Oc2ccc(F)cc2N(CCOC(=O)NCCNC(=O)CC[C@H](N)C(=O)O)C(=O)[C@H]1NC(=O)[C@@](C)(O)C(=O)NCC(F)(F)C(F)(F)F [Compound 13b, hydrochloride] :: μM range

* * *

Test: Distribution in plasma, liver and kidney in the aristolochic acid mouse model (repeated i.p.)
Assay type: in vivo
Settings: male, C57BL/6, mouse, liver, ip, 30 mg/kg, AA-exposed mice, 13a 30 mg/kg b.i.d. i.p. repeated, 13 h; read-out: Liver concentration of 13a
Description: For PK evaluation, the compounds were administered i.p to male C57BL/6 mice in suspension (gelatine/saline 7.5%/0.62% in water) using an administration volume of 4 mL/kg. […] All samples were analyzed using protein precipitation followed by LC-MS/MS analysis. […] 10 μL supernatant was analyzed by LC/MS analysis. […] Compounds mass transitions monitored were m/z 320.7 to 119.9. PK parameters for all studies were calculated using Phoenix WinNonlin Software. […]
value kind: concentration at 13 h (ng/g)

CC(=O)N[C@@H](CCC(=O)NCCNC(=O)OCCN1C(=O)[C@@H](NC(=O)[C@@](C)(O)C(=O)NCC(F)(F)C(F)(F)F)[C@@H](C)Oc2ccc(F)cc21)C(=O)O [Compound 13a] :: 155

* * *

Test: Pharmacokinetic assessment in C57BL/6 healthy wild-type mice (i.p.)
Assay type: in vivo, mouse
Settings: male, mouse, kidney, ip; C57BL/6 mice, 10 mg/kg i.p., 7 h; read-out: Kidney concentration of administered compound
value kind: concentration at 7 h (ng/g)

CC(=O)N[C@@H](CCC(=O)O)C(=O)NCCNC(=O)OCCN1C(=O)[C@@H](NC(=O)[C@@](C)(O)C(=O)NCC(F)(F)C(F)(F)F)[C@@H](C)Oc2ccc(F)cc21 [Compound 15a] :: 33.8
C[C@H]1Oc2ccc(F)cc2N(CCOC(=O)NCCN)C(=O)[C@H]1NC(=O)[C@@](C)(O)C(=O)NCC(F)(F)C(F)(F)F.Cl [Compound 11a, hydrochloride] :: 420

* * *

Assay: Distribution in plasma, liver and kidney in the aristolochic acid mouse model (repeated i.p.)
Format: in vivo
Conditions: male, C57BL/6, mouse, liver, ip, 10 mg/kg, AA-exposed mice, 11a 10 mg/kg b.i.d. i.p. repeated, 13 h; read-out: Liver concentration of 11a
Method: For PK evaluation, the compounds were administered i.p to male C57BL/6 mice in suspension (gelatine/saline 7.5%/0.62% in water) using an administration volume of 4 mL/kg. […] All samples were analyzed using protein precipitation followed by LC-MS/MS analysis. […] 10 μL supernatant was analyzed by LC/MS analysis. […] Compounds mass transitions monitored were m/z 320.7 to 119.9. PK parameters for all studies were calculated using Phoenix WinNonlin Software. […]
value kind: concentration at 13 h (ng/g)

C[C@H]1Oc2ccc(F)cc2N(CCOC(=O)NCCN)C(=O)[C@H]1NC(=O)[C@@](C)(O)C(=O)NCC(F)(F)C(F)(F)F.Cl [Compound 11a, hydrochloride] :: 1250
